The measured values listed here are drawn from the supplement of paper PMC8671470.

- Test system: HL-60
- Assay name: cell viability (% survival relative to DMSO control); higher = less cytotoxic
- Test settings: 0.01 µM; 72 h; co-treatment: DMSO vehicle
Quantity name: cell viability (%)
# number only, unit % dropped from output

cell viability measured on Fc1ccc(CNc2ncnc3ccc(F)cc23)cc1 [Spautin 1] = 97.9

cell viability in this record for O=C(Cc1cccc(OC(F)(F)F)c1)Nc1ccc(CCCCc2nnc(NC(=O)Cc3ccccn3)s2)nn1 [CB-839] : 102

cell viability reading for CC(C)(CS(=O)(=O)[O-])NC(=O)CC[N+](C)(C)CCO : 98.4

* * *

Listing: cell viability of selected compounds
- Tested on: SHI-1
- Assay name: cell viability (% survival relative to DMSO control, bortezomib = 0%); higher = less cytotoxic
- Test settings: 1000 nM; 72 h
The reply should be a number in %, with the unit left off.

Example entries begin here.
1. c1ccc2c(c1)SCc1c-2[nH]c2ccccc12 ... 84.7
2. CC(C)(F)C[C@H](N[C@@H](c1ccc(-c2ccc(S(C)(=O)=O)cc2)cc1)C(F)(F)F)C(=O)NC1(C#N)CC1 [Odanacatib] ... 98.5
3. O=NN(CCCl)C(=O)NCCCl [Carmustine] ... 128
4. Cn1c2cc(S(C)=O)sc2c2cnn(Cc3cccc(N)c3)c(=O)c21 (centres undefined) [TEPP-46] ... 96.5
5. CCCCCCCCCCCCCCOc1ccc(C(=O)O)o1 [TOFA] ... 98.9
6. O=C(/C=C/c1cccnc1)NCCCCC1CCN(C(=O)c2ccccc2)CC1 [Daporinad] ... 68.9
7. O=C(Oc1cccc(F)c1OC(=O)c1cccc(O)c1)c1cccc(O)c1 [WZB117] ... 103
8. Cl.OC[C@H]1NC[C@H](O)[C@@H](O)[C@H]1O [Migalastat] ... 102

cell viability reported for this compound C=C1C(=O)O[C@H](CCCCCCCC)[C@H]1C(=O)O [C75] : 100
